# TEST SUMMARY: Inhibition of EGFR T790M/L858R double mutant (unknown origin) transfected in mouse BAF3 cells assessed as reduction in cell viability after 72 hrs by MTS assay
ASSAY READOUT: pEC50
Units for pEC50: none; it is -log10 of a concentration expressed in mol/L.

Ask | Can you share its pEC50? I mean this compound: CCC(=O)Nc1cc(Nc2ncc(Cl)c(Nc3ccccc3S(=O)(=O)C(C)C)n2)c(OC)cc1N(C)CCN(C)C
Reply | 6.01

Origin of the recorded values: BindingDB's records for doi:10.1016/j.ejmech.2017.04.079
